procedure summary: Selectivity index, ratio of IC50 for human KB cells to IC50 for Trypanosoma brucei rhodesiense STIB900
Format: toxicity
details: read-out: Ratio IC50
Could you mark each record T if its selectivity ratio falls strictly under 20, and F if it equals or exceeds it?

A record lists O=C(/C=C/c1cccnc1)c1ccc(Br)cc1 . Is its selectivity ratio below 20? F

selectivity ratio strictly < 20 for this compound? O=C(/C=C/c1ccccn1)c1cccc(Br)c1 F

Now look at this entry.
hey, is selectivity ratio for COc1cccc(C(=O)/C=C/c2cccnc2)c1 lower than 20 or not? T

---

Known selectivity ratio of a selection of compounds
procedure summary: Selectivity index, ratio of IC50 for human KB cells to IC50 for Trypanosoma brucei rhodesiense STIB900
Format: toxicity
details: read-out: Ratio IC50
Output: the number by itself.

Use the examples below as a reference point.
selectivity ratio reported for this compound COc1ccccc1C(=O)/C=C/c1cccnc1 : 20

Record O=C(/C=C/c1cccnc1)c1ccccc1 , field selectivity ratio: 11

Field selectivity ratio (entry O=C(/C=C/c1cccnc1)c1cccnc1 ) reads 17

Kindly note the recorded selectivity ratio for O=C(/C=C/c1cccnc1)c1ccc2c(c1)OCO2 , which is 12

Next:
The compound listed as O=C(CC(CC(=O)c1cccc(Br)c1)c1cccnc1)c1cccc(Br)c1 has a reported selectivity ratio of 15

Entry under test: O=C(/C=C/c1cccnc1)c1cccc(Cl)c1 . Its selectivity ratio was 21

The reported value for COc1ccc(C(=O)/C=C/c2cccnc2)cc1 in terms of selectivity ratio is 23

---

procedure summary: Selectivity index, ratio of IC50 for human KB cells to IC50 for Trypanosoma brucei rhodesiense STIB900
Format: toxicity
details: read-out: Ratio IC50
property name: selectivity ratio
Kindly provide the number alone.

Here is how some compounds turned out for selectivity ratio.
Recorded result, O=C(/C=C/c1cccc(Br)c1)c1cccnc1 , selectivity ratio: 63

In plain terms, O=C(/C=C/c1cccnc1)c1ccc(F)c(F)c1 has a documented selectivity ratio of 29

Just so you know, measured selectivity ratio for O=C(/C=C/c1ccncc1)c1cccc(Br)c1 came out at 36

// selectivity ratio lookup, compound = COc1ccc(C(=O)/C=C/c2cccnc2)cc1OC , result: 24

O=C(/C=C/c1ccccc1)c1cccc(Br)c1 has a reported selectivity ratio of 19

Item: O=C(/C=C/c1cccnc1)c1cccc(O)c1 | selectivity ratio: 19

New cases:
For this compound ( O=C(/C=C/c1cccnc1)c1cccc(Br)c1 ), measured selectivity ratio is 47

The origin of these recorded values is ChEMBL document CHEMBL4004846.
